- System: CAKI-1 renal
- Assay Procedure: NCI-60 one-dose screen, 48 h (100 = growth as untreated, 0 = no growth, -100 = all killed)
- Details: 10 µM
Compounds without any hit were thinned out: in the full panel of roughly 83,000, 20% have a hit.
Returns: string. Value is 1.0 if measured growth is below 20%, and 0.0 if it is greater than or equal to it.

# input Would you kindly verify if growth of CCN(CCCNc1cc2c(c(N)c1S(=O)(=O)O)C(=O)c1ccccc1C2=O)c1ccccc1 is strictly less than 20%?
# output 0.0

# input Would you kindly verify if growth of CCC(=O)OC1CCC2C3CCC(=O)OC3C(C)(CCC(=O)O)CC12C (configuration not stated) is strictly less than 20%?
# output 1.0

# input Would you kindly verify if growth of CCCCCC(=O)O[C@]1(C(C)=O)CCC2C3CCC4=CC(=O)CC[C@]4(C)C3CC[C@@]21C (some centres not stated) is strictly less than 20%?
# output 1.0

# input Would you kindly verify if growth of O=C1/C=C/[C@@H](O)[C@@H]2C[C@@H](O)C[C@H]2/C=C/CCC[C@H](CCc2ccc(NC(=S)Nc3ccc4c(c3)C(=O)OC43c4ccc(O)cc4Oc4cc(O)ccc43)cc2)O1 is strictly less than 20%?
# output 0.0

# input Would you kindly verify if growth of COc1ccc(/C=C/c2nnc(/C=C/c3ccc(OC)c(OC)c3)o2)cc1OC is strictly less than 20%?
# output 0.0

# input Would you kindly verify if growth of O=c1oc2c(cc1-c1ccc(F)cc1)C(O)Oc1ccccc1-2 (configuration not stated) is strictly less than 20%?
# output 0.0

# input Would you kindly verify if growth of CCCCN(CCCC)C(=O)[C@H](CC)[C@@H]1CC[C@@H](C)[C@@H]([C@H](C)[C@@H](O)[C@@H](C)C(=O)[C@H](CC)C2O[C@]3(C=CC(=O)[C@]4(CC[C@@](C)([C@H]5CC[C@](O)(CC)[C@H](C)O5)O4)O3)[C@H](C)C[C@@H]2C)O1 (some centres not stated) is strictly less than 20%?
# output 0.0

---

- Tested on: SW-620 colon
- Assay Procedure: NCI-60 one-dose screen, 48 h (100 = growth as untreated, 0 = no growth, -100 = all killed)
- Details: 10 µM
This is part of a sample that, as a whole, favours compounds with a hit. Of some 83,000 tested, about 20% had one in any assay.
Returns: string. Value is Criterion met if measured growth is below 40%, and Criterion not met if it is greater than or equal to it.

# input Would you kindly verify if growth of Cc1ccc(NCCNCC(C)(C)O)c2c(=O)c3ccc(Cl)cc3sc12 is strictly less than 40%?
# output Criterion met

# input Would you kindly verify if growth of COc1cc(NC(=O)C2=C(N3CCOCC3)/C(=C/c3ccc(Cl)cc3)CC2)cc(OC)c1OC is strictly less than 40%?
# output Criterion not met

# input Would you kindly verify if growth of OCC1OC(n2ccc3c(NO)ncnc32)C(O)C1O (stereo not given) is strictly less than 40%?
# output Criterion met

# input Would you kindly verify if growth of Clc1nc2ccccc2cc1Cn1nnc(Cc2ccccc2)n1 is strictly less than 40%?
# output Criterion not met

# input Would you kindly verify if growth of C[C@H]1[C@H](OC(=O)CCC(=O)O)O[C@@H]2O[C@]3(C)CC[C@H]4[C@H](C)CC[C@@H]1[C@@]24OO3 is strictly less than 40%?
# output Criterion met

# input Would you kindly verify if growth of COc1ccc(-c2n[nH]nc2-c2cc(OC)c(OC)c(OC)c2)cc1 is strictly less than 40%?
# output Criterion met

# input Would you kindly verify if growth of O=C1/C=C/[C@@H](O)[C@@H]2C[C@@H](O)C[C@H]2/C=C/CCC[C@H](CCc2ccc(C(F)(F)F)cc2)O1 is strictly less than 40%?
# output Criterion met

# input Would you kindly verify if growth of Cc1cc(=O)n2nnc3cc(C(F)(F)F)ccc3n12 is strictly less than 40%?
# output Criterion not met

# input Would you kindly verify if growth of Cc1nn(-c2ccccc2)c2nc(Cl)c(C=O)c(-c3ccccc3)c12 is strictly less than 40%?
# output Criterion not met

# input Would you kindly verify if growth of CCC(=O)OC1CCC2C3CCC(=O)OC3C(C)(CCC(=O)O)CC12C (stereo not given) is strictly less than 40%?
# output Criterion met

# input Would you kindly verify if growth of Cc1cc(CSc2ccccc2C(=O)N2CC=C(c3ccccc3)CC2)on1 is strictly less than 40%?
# output Criterion not met

# input Would you kindly verify if growth of CNS(=O)(=O)Oc1ccc(-c2sc3cc(OS(=O)(=O)NC)ccc3c2C(=O)c2ccc(OCCN3CCCCC3)cc2)cc1 is strictly less than 40%?
# output Criterion not met

# input Would you kindly verify if growth of Cc1ccc(/C=C2/C(=O)N(C)c3ccc(S(=O)(=O)Nc4ccc(C(C)(C)C)cc4)cc32)s1 is strictly less than 40%?
# output Criterion not met

# input Would you kindly verify if growth of COc1cc2c3c(n(C4CCNCC4)c(=O)c2cc1OC)-c1cc2c(cc1C3=O)OCO2 is strictly less than 40%?
# output Criterion met

# input Would you kindly verify if growth of O=C(CCl)Nc1ccc(Cc2ccc(NC(=O)CCl)cc2)cc1 is strictly less than 40%?
# output Criterion met

# input Would you kindly verify if growth of O=C1/C(=C/c2cccc(F)c2)Cc2ccccc21 is strictly less than 40%?
# output Criterion not met

# input Would you kindly verify if growth of NS(=O)(=O)c1ccc(N2N=C(c3ccccc3)CCC2=O)cc1 is strictly less than 40%?
# output Criterion not met

# input Would you kindly verify if growth of CC(=O)Nc1cc2c(cc1Cl)Cc1cc(Cl)ccc1-2 is strictly less than 40%?
# output Criterion not met

# input Would you kindly verify if growth of COc1ccc(-c2cc(-c3ccc(Cl)cc3)nc(SCCCC(=O)NO)n2)cc1OC is strictly less than 40%?
# output Criterion met

---

Answer each item with its documented growth.
- Test system: UO-31 renal
- Assay Procedure: NCI-60 one-dose screen, 48 h (100 = growth as untreated, 0 = no growth, -100 = all killed)
- Details: 10 µM
Compounds without any hit were thinned out: in the full panel of roughly 83,000, 20% have a hit.
Numbers only; they are read as %.

# input Return reported growth; argument: O=[N+]([O-])c1ccc2ncccc2c1Cl
# output 30.2

# input Return reported growth; argument: C=C/C(C)=C/C[C@]1(C)[C@H](C)[C@@H](OC(=O)CCC)[C@H](O)[C@@]23C(=C[C@H](OC)C[C@@H]12)[C@@H](OC(=O)CCC)O[C@H]3OC(C)=O
# output -90.7

# input Return reported growth; argument: CN(C)CCOc1ccc(-c2nc3sccn3c2-c2ccnc(S(C)(=O)=O)n2)cc1
# output 97.1

# input Return reported growth; argument: COc1ccc2c(c1)OC(N)=C(C#N)C2c1cc(OC)c(OC)c(OC)c1 (centres undefined)
# output 47.2

# input Return reported growth; argument: O=[N+]([O-])c1ccc(/C(=C/c2ccccc2)[n+]2ccccc2)cc1
# output 100

# input Return reported growth; argument: C/C=C/CSC(C)(C)C(=O)NC
# output 93.8

# input Return reported growth; argument: COc1ccc(N=Nc2cc(OC)c(OC)c(OC)c2)cc1
# output 58.6

# input Return reported growth; argument: CC[C@H]1OC(=O)[C@H](C)[C@@H](O[C@H]2C[C@@](C)(OC)[C@@H](O)[C@H](C)O2)[C@H](C)[C@@H](O[C@@H]2O[C@H](C)C[C@H](N(C)C)[C@H]2O)[C@](C)(OC)C/C(C)=C2/O[C@@]1(C)C=C2C
# output 50.5

# input Return reported growth; argument: O=C(N/N=C/c1ccc([N+](=O)[O-])cc1)c1ccccc1Nc1cccc(C(F)(F)F)c1
# output 78.4

# input Return reported growth; argument: CNC(=O)c1cn2c3c(c(N4CCN(C)CC4)c(F)cc3c1=O)OC[C@@H]2C
# output 92.3

# input Return reported growth; argument: O=S(=O)(O)c1ccc(Cl)cc1
# output 88.7

# input Return reported growth; argument: COc1ccc(Cc2cnc(N)nc2N)cc1OC
# output 78

# input Return reported growth; argument: N=C1S/C(=C/c2ccc(-c3ccc4c(c3)C(=O)NC4=O)o2)C(=O)N1c1ccc(Br)cc1
# output -13.3

# input Return reported growth; argument: c1ccc(CSc2ncccc2-c2nnc(SCCN3CCOCC3)o2)cc1
# output 89.4

# input Return reported growth; argument: O=C1CC(=O)N(C(=O)c2nn(-c3ccc(Cl)cc3)cc2O)N1
# output 25.6

# input Return reported growth; argument: CC(C)CCN(CCC(C)C)CC(=O)Nc1ccc(S(=O)(=O)c2ccc(NC(=O)CN(CCC(C)C)CCC(C)C)cc2)cc1
# output 63.3

# input Return reported growth; argument: CC1(C)N=C(N)N=C(N)N1c1cccc(C#N)c1
# output 77.9

# input Return reported growth; argument: OCC1OC(n2cnc3c(NCc4ccco4)ncnc32)C(O)C1O (centres undefined)
# output 20.4

# input Return reported growth; argument: CNC(=O)c1cc(Oc2ccc3c(c2)sc2nc(-c4ccc(NC(=O)Nc5ccc(Cl)c(C(F)(F)F)c5)cc4)cn23)ccn1
# output 73.9

The values you see were collected from PubChem BioAssay (NCI).
